assay: Human HepG2 cell viability assay in 384 well format; assay type: toxicity, cell-based; set-up: dose 125 nL, time 70.5 hour; concentration not given beside the values; details: HepG2 cells, read-out: Inhibition
molecules and their reported cytotoxicity at 70.5 h
Kindly report the value followed by its unit.

Look over these answered cases.
- molecule: "COC(=O)CCCNC(=O)N1CCc2c(F)ccc(F)c2C1"
  cytotoxicity at 70.5 h: "-1.47%"
- molecule: "NC(=O)C1CCN(C(=O)NCCOc2ccc3c(c2)CCC3)CC1"
  cytotoxicity at 70.5 h: "-6.38%"
- molecule: "CCc1nnc2n1CCN(C(=O)CN(C)Cc1ccccc1)C2"
  cytotoxicity at 70.5 h: "-4.4%"

Q: Would you kindly share the measured cytotoxicity at 70.5 h for CCc1n[nH]c(C2CN(C(=O)CCCn3cccn3)CCO2)n1 (centres undefined) ?
Result: 2.59%

Q: Try CC(C)C(=O)N1CCc2c(CN(C)Cc3ccco3)cncc2C1 next.
Result: -9.73%

Q: And for CC(NC(=O)c1cccc(CN2CCN(C)CC2)c1)c1nccs1 (centres undefined) ?
Result: 1.61%

Q: Can you check NC(=O)C1CCN(C(=O)CCSCc2ccc(Cl)c(Cl)c2)CC1 next?
Result: -7.23%

Q: Now the same for CC(C)CC(=O)N1CCC2(CC1)[C@@H]1CN(C(=O)N(C)C)C[C@@H]1C(=O)N2C
Result: -3.34%

Q: Cool, now Cc1nn(C)c(N2CCCN(C)CC2)c1CNC(=O)CCC(C)C
Result: -1.98%

Q: Consider next the molecule CN(C)C(=O)CN1CCc2ncnc(C3CC3)c2CC1 in the same way.
Result: 2.76%

Q: Note, next up: Cc1nccn1CC1CCCN(C(=O)c2cnn(C)c2)C1 (centres undefined)
Result: -12.8%

Q: What about CC1CN(C)CCN1C(=O)c1cnc2onc(CC(C)(C)C)c2c1 (centres undefined) ?
Result: -8.98%

Q: Okay, and O=C(c1cc(=O)c(OCc2ccccc2)co1)N1CCSCC1 ?
Result: -18.7%

Q: And the next one, c1ccc(CCN2CCCC(c3ccnc4nccn34)C2)cc1 (centres undefined) ?
Result: -1.37%

Q: Subsequent entry: CC(C)Cn1cncc1Cn1cccc(C(F)(F)F)c1=O
Result: -2.53%

Q: Similarly, Cc1ccc(Cl)cc1-n1nnnc1C1(N2CCCC2)CCCCC1 ?
Result: -12.7%

Q: Also COCC(=O)N1CCCC2(CCN(CCN3CCCC3)CC2)C1 ?
Result: -1.48%

Q: Also c1cnnc(N2CCCC(NCc3nc(-c4ccco4)no3)C2)c1 (centres undefined) , if possible.
Result: 46.2%

Q: For O=C(CCn1ncc2ccccc21)N1CCCC(Cc2cccnc2)C1 (centres undefined) then?
Result: -5.11%
